Cited source for all entries: patent US7713998B2

System: TNF-α production stimulated by lipopolysaccharide (LPS) in THP-1
Test: Inhibitory activity against TNF-α production using human cell lines (THP-1, LPS)
Format: cell-based
Conditions: 1.5 h, THP-1 cells, 90 minutes, TNF-α in supernatant by ELISA
recorded.endpoint: pIC50
FYI, pIC50 means -log10 of a concentration in mol per litre.

Incoming: Which pIC50 reading was recorded for the molecule "CN1CCC(c2nc(-c3ccc(=O)n(-c4c(Cl)cccc4Cl)c3)c(-c3ccc(F)cc3Cl)s2)CC1" ?
Outgoing: 8.85

----------
Biological target: recombinant human p38α MAP kinase (Homo sapiens, UniProt Q16539)
Sequence (Q16539 whole entry): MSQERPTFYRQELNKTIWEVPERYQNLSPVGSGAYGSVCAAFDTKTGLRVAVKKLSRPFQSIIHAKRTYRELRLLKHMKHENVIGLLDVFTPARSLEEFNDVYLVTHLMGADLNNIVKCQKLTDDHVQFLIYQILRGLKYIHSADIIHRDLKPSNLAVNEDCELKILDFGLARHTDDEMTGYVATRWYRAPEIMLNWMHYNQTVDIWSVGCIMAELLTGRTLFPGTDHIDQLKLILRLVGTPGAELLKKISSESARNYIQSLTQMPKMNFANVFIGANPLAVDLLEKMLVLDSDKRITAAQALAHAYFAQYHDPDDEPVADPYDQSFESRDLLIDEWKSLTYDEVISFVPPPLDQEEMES
Test: Study on p38α MAP kinase inhibitory activity (ATF2 phosphorylation, Alpha Screen)
Settings: phosphorylation of biotinylated ATF2 by recombinant human p38α MAP kinase, 30° C. 30 minutes
recorded.endpoint: pIC50
FYI, pIC50 means -log10 of a concentration in mol per litre.

Incoming: Which pIC50 reading was recorded for the compound "CN1CCC(c2nc(-c3ccc(=O)n(-c4c(Cl)cccc4Cl)c3)c(-c3ccc(F)cc3Cl)s2)CC1" ?
Outgoing: 8.85
